- target entity: EML4-ALK I1171N + F1174I (Homo sapiens, UniProt Q9UM73, F1174I/I1171N)
- experiment notes: Ba/F3 cell viability, CellTiter-Glo
- stated conditions: mouse, 72 h, 0.05 µM
outcome measure: viability rate of cells
Give only the figure.

Prompt line: Name the recorded viability rate of cells of the item Cc1cc(Nc2ncc(Cl)c(Nc3ccccc3S(=O)(=O)C(C)C)n2)c(OC(C)C)cc1C1CCNCC1 in your answer.
Response line: 100.0

Prompt line: Name the recorded viability rate of cells of the item Cc1nc(Nc2ncc(C(=O)Nc3c(C)cccc3Cl)s2)cc(N2CCN(CCO)CC2)n1 in your answer.
Response line: 103.5

Prompt line: Name the recorded viability rate of cells of the item Cc1ccc(NC(=O)c2ccc(CN3CCN(C)CC3)cc2)cc1Nc1nccc(-c2cccnc2)n1 in your answer.
Response line: 116.1

Prompt line: Name the recorded viability rate of cells of the item COc1cc(N2CCC(N3CCN(C)CC3)CC2)ccc1Nc1ncc(Cl)c(Nc2ccccc2P(C)(C)=O)n1 in your answer.
Response line: 83.9

Prompt line: Name the recorded viability rate of cells of the item C[C@]1(O)C[C@@H](c2nc(-c3ccc4ccc(-c5ccccc5)nc4c3)c3c(N)nccn32)C1 in your answer.
Response line: 138.9

Prompt line: Name the recorded viability rate of cells of the item COc1cc2nccc(Oc3ccc(NC(=O)NC4CC4)c(Cl)c3)c2cc1C(N)=O in your answer.
Response line: 114.2

Prompt line: Name the recorded viability rate of cells of the item CN1CCN(c2ccc(C(=O)Nc3n[nH]c4ccc(Cc5cc(F)cc(F)c5)cc34)c(NC3CCOCC3)c2)CC1 in your answer.
Response line: 142.6

Prompt line: Name the recorded viability rate of cells of the item COc1cc2ncnc(Nc3ccc(F)c(Cl)c3)c2cc1OCCCN1CCOCC1 in your answer.
Response line: 155.6

Prompt line: Name the recorded viability rate of cells of the item COc1cc2nccc(Oc3ccc(NC(=O)C4(C(=O)Nc5ccc(F)cc5)CC4)cc3)c2cc1OC [Cabozantinib] in your answer.
Response line: 152.5

Prompt line: Name the recorded viability rate of cells of the item C=CC(=O)Nc1cc(Nc2nccc(-c3cn(C)c4ccccc34)n2)c(OC)cc1N(C)CCN(C)C in your answer.
Response line: 122.4

Sourced from patent US20250099461A1
